Sourced from patent US4880938A

# Tested Target: Gastrin receptor (gastric glands) (Cavia porcellus)
# Construct: Gastric mucosa from male Hartley guinea pigs (300-500 g body weight)
# Sequence (H0VZC5 1-426): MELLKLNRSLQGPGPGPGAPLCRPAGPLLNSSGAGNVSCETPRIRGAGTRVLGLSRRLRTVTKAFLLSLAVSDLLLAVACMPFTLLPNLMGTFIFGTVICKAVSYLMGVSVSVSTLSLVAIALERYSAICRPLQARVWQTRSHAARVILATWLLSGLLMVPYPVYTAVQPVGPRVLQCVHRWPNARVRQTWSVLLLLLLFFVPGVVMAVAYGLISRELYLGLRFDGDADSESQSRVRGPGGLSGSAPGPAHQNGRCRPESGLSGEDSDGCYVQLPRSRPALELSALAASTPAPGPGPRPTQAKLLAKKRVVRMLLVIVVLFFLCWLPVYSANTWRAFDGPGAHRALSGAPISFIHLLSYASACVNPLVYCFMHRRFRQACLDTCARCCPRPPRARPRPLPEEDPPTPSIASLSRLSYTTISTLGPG
# Protocol Description: 125I-gastrin receptor binding in guinea pig gastric glands
# Assay Setup: 25° C., 30 minutes
Reported Endpoint: IC50 (µM)
The reply should be a number in µM, with the unit left off.

Which measured IC50 belongs to "O=C(O)CC[C@@H](NC(=O)c1cc2ccccc2[nH]1)C(=O)N(C1CCCCC1)C1CCCCC1" , tested on Gastrin receptor (gastric glands) (Cavia porcellus)?
4.1

Which measured IC50 belongs to CCCCCN(CCCCC)C(=O)C(CCC(=O)OCc1ccccc1)NC(=O)Nc1ccc(Cl)cc1 (racemic) , tested on Gastrin receptor (gastric glands) (Cavia porcellus)?
22
